These data points were gathered from ChEMBL document CHEMBL5126678.

Listing of entries alongside the reported IC50.
- Test system: HT-29
- protocol: Cytotoxicity against human HT-29 cells assessed as reduction in cell viability measured after 72 hrs by MTT assay
- Assay type: functional, cell-based
- assay.conditions: HT-29, 72 h

[
  {
    "molecule": "COc1cc(C2C(C#N)=C(N)Oc3c2ccc2ccccc32)cc(OC)c1OC (stereo not drawn)",
    "study.system": "HT-29",
    "IC50": "324 nM"
  },
  {
    "molecule": "CCCOc1c(OC)cc(C2C(C#N)=C(N)Oc3c2ccc2ccccc32)cc1OC (stereo not drawn)",
    "study.system": "HT-29",
    "IC50": "284 nM"
  },
  {
    "molecule": "COc1cc(C2C(C#N)=C(N)Oc3c2ccc2ccccc32)cc(OC)c1OC(C)C (stereo not drawn)",
    "study.system": "HT-29",
    "IC50": "4310 nM"
  }
]

----------
- protocol: Effect on angiogenic activity in 24 hrs post-fertilized fil1/EGFP transgenic zebrafish embryo assessed as subintestinal vessel area at 100 nM measured after 48 hrs by fluorescence microscopy (reference value: 100%)
- Type: toxicity, Danio rerio
- assay.conditions: 0.1 µM
parameter.measured: Activity (%)

[
  {
    "compound": "COc1cc(C2C(C#N)=C(N)Oc3c2ccc2ccccc32)cc(OC)c1OC (stereo not drawn)",
    "parameter.measured": "Activity",
    "display.unit": "%",
    "observed.result": 81.4
  },
  {
    "compound": "COc1cc(C2C(C#N)=C(N)Oc3c2ccc2ccccc32)cc(OC)c1OC(C)C (stereo not drawn)",
    "parameter.measured": "Activity",
    "display.unit": "%",
    "observed.result": 80.9
  },
  {
    "compound": "CNC(=O)c1ccccc1Sc1ccc2c(/C=C/c3ccccn3)n[nH]c2c1",
    "parameter.measured": "Activity",
    "display.unit": "%",
    "observed.result": 19.6
  }
]
